system_tested: ΔF508-CFTR (Homo sapiens, UniProt P13569, DEL508-508)
Construct: host or cells: CFBE41o-, doxycycline-inducible
Sequence (P13569 with tags, fused parts or gaps DEL508-508): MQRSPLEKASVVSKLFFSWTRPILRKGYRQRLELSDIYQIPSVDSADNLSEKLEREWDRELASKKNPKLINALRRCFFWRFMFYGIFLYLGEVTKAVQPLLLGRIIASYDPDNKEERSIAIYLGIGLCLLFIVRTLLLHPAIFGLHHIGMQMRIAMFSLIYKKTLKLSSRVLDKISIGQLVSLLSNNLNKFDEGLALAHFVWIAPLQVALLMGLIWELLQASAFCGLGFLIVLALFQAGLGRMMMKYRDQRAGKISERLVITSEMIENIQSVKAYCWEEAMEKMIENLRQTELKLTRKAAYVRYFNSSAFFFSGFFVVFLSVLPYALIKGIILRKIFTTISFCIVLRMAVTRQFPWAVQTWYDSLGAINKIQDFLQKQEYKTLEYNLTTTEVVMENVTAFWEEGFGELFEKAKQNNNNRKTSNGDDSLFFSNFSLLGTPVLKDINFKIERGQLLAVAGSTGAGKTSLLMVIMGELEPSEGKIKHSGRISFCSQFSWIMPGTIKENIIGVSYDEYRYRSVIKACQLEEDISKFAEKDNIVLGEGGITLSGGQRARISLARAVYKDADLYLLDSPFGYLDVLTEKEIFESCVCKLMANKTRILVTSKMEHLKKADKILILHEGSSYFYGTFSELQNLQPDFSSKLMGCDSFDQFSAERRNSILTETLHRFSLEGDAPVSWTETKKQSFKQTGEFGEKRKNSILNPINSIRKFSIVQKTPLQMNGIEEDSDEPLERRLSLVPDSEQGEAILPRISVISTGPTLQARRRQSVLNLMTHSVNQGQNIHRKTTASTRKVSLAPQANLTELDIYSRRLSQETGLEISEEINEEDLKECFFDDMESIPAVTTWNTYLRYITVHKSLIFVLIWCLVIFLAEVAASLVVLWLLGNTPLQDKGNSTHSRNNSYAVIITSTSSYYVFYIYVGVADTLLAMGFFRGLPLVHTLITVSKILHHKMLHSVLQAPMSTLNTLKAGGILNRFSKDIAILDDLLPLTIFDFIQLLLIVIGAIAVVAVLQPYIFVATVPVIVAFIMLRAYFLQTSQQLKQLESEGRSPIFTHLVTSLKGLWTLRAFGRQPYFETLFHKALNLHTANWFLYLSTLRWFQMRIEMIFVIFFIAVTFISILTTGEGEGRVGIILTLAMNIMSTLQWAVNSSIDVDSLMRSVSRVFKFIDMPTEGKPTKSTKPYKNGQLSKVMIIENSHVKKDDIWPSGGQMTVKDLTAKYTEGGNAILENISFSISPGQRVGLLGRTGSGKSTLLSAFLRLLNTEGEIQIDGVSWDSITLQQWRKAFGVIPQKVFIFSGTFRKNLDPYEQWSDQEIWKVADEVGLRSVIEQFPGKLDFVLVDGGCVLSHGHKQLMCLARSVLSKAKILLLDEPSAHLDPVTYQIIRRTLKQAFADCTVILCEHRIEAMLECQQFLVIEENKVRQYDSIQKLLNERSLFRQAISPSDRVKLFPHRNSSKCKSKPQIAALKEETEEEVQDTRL
test_description: CFTR cell surface levels using HRP-tagged ΔF508-CFTR expressing CFBE cells, in the presence of a co-corrector
Format: cell-based
test_settings: HRP-tagged ΔF508-CFTR expressing CFBE cells, in the presence of 3 μM co-corrector
measurement_label: % Activation (%)

INSERT INTO assay_data (cpd_smiles, unit_abbreviation, numeric_value) VALUES
  ('O=C(O)c1cc(N2CC3(CCCCO3)C2)c2c(C3CCC3)nn(-c3ccccc3)c2n1', '%', 254.9),
  ('CC(C)Oc1nn(C2CCCCC2)c2nc(C(=O)O)cc(-c3ccc(C(=O)N4CCC(N(C)C)CC4)cc3)c12', '%', 155.4),
  ('O=C(O)c1cc(OC2CN(C3CCCCC3)C2)c2c(C3CCC3)nn(-c3ccccc3)c2n1', '%', 248.4),
  ('CN(C)C(=O)CN1CCN(c2cc(C(=O)O)nc3c2c(C2CCC2)nn3-c2ccccc2)CC1', '%', 352.47);

----------
system_tested: ΔF508-CFTR (Homo sapiens, UniProt P13569, DEL508-508)
Construct: host or cells: CFBE41o-, doxycycline-inducible
test_description: CFTR cell surface levels using HRP-tagged ΔF508-CFTR expressing CFBE cells, in the presence of a co-corrector
Type: cell-based
test_settings: HRP-tagged ΔF508-CFTR expressing CFBE cells, in the presence of 3 μM co-corrector; read-out: EC50
From the text: Measuring CFTR Cell Surface Levels Using HRP-Tagged AF508-CFTR Expressing CFBE Cells The HRP-tagged AF508-CFTR cell assay measures the expression of CFTR-ΔF508 at the plasma membrane. […] When HRP-tagged AF508-CFTR is present at the plasma membrane, the HRP enzyme activity can be measured. The amount of CFTR-ΔF508 that can be rescued to the plasma membrane is correlated with the amount of functional enzyme that can be measured. […]
pEC50: −log10 of the molar value.
measurement_label: pEC50

INSERT INTO results (compound, measurement_label, numeric_value) VALUES
  ('COc1cc(-n2nc(C3CCC3)c3c(N4CCC(N5CCOCC5)CC4)cc(C(=O)O)nc32)ccc1F', 'pEC50', 6.77),
  ('Cc1nn(-c2ccccc2)c2nc(C(=O)O)cc(-c3ccc(N4CCOC(CO)C4)cc3)c12 (stereo not shown)', 'pEC50', 5.48),
  ('COC(C)(C1CCN(c2cc(C(=O)O)nc3c2c(C2CCC2)nn3-c2ccccc2)CC1)C(F)(F)F (stereo not shown)', 'pEC50', 6.70),
  ('COCCN(C)c1ccc(-c2cc(C(=O)O)nc3c2c(C(C)C)nn3-c2cccc(N3CCOCC3)c2)cn1', 'pEC50', 6.01);

----------
system_tested: ΔF508-CFTR (Homo sapiens, UniProt P13569, DEL508-508)
Construct: host or cells: CFBE41o-, doxycycline-inducible
test_description: CFTR cell surface levels using HRP-tagged ΔF508-CFTR expressing CFBE cells, in the presence of a co-corrector
Type: cell-based
test_settings: HRP-tagged ΔF508-CFTR expressing CFBE cells, in the presence of 3 μM co-corrector; read-out: EC50
pEC50: −log10 of the molar value.
// values below are reported pEC50
measurement_label: pEC50

INSERT INTO measurements (molecule, numeric_value) VALUES
  ('CC(C)Oc1nn(C2CCCCC2)c2nc(C(=O)O)cc(-c3ccc(N4CCN(C)CC4)cc3)c12 [compound 883]', 6.62),
  ('COCC1(F)CCN(c2cc(C(=O)O)nc3c2c(C(C)C)nn3-c2ccc(F)cc2)CC1 [compound 669]', 6.10),
  ('N#CC1CCN(c2cc(C(=O)O)nc3c2c(C2CCC2)nn3-c2ccccc2)CC1 [compound 410]', 6.64),
  ('Cc1nn(-c2ccccc2)c2nc(C(=O)O)cc(N3CCC4(CCCO4)C3)c12 (stereo not shown) [compound 311]', 5.67);

----------
// values below are reported log10(EC50)
system_tested: ΔF508-CFTR (Homo sapiens, UniProt P13569, DEL508-508)
Construct: host or cells: CFBE41o-, doxycycline-inducible
test_description: CFTR cell surface levels using HRP-tagged ΔF508-CFTR expressing CFBE cells, intrinsic corrector capacity
Format: cell-based
test_settings: HRP-tagged ΔF508-CFTR CFBE41o- cells, compounds alone (intrinsic corrector capacity), 20 hours at 33° C.; read-out: EC50
measurement_label: log10(EC50) (log10 of the value in nM)

INSERT INTO assay_data (compound, numeric_value) VALUES
  ('N#CC1CCN(c2ccc(-c3cc(C(=O)O)nc4c3c(C3CCC3)nn4C3CCCCC3)cc2)CC1 [compound 219]', 2.71),
  ('Cc1nn(-c2ccccc2)c2nc(C(=O)O)cc(N3CC4(CCCC4)C3)c12 [compound 307]', 3.28),
  ('CC(C)c1nn(-c2cccc(F)c2)c2nc(C(=O)O)cc(-c3ccc(N4CCC(C#N)CC4)nc3)c12 [compound 285]', 2.82),
  ('Cc1nn(-c2ccccc2)c2nc(C(=O)O)cc(-c3ccc(N4CCC(F)(F)C4)cc3)c12 [compound 111]', 2.66),
  ('CC(C)c1nn(C2CCCCC2)c2nc(C(=O)O)cc(-c3cnc(N4CCC(C#N)CC4)nc3)c12 [compound 235]', 2.92),
  ('Cc1nn(-c2ccccc2)c2nc(C(=O)O)cc(N3CCN4C(=O)OCC4C3)c12 (centres unmarked) [compound 301]', 3.88),
  ('Cc1nn(-c2ccccc2)c2nc(C(=O)O)cc(N3CC4CC4C3)c12 (centres unmarked) [compound 304]', 3.40),
  ('CC(C)c1nn(-c2cccc(N3CCC3)c2)c2nc(C(=O)O)cc(-c3ccc(N4CCOCC4)cc3)c12 [compound 151]', 2.55),
  ('Cc1cccc(-n2nc(C(C)C)c3c(N4CCC(CF)CC4)cc(C(=O)O)nc32)c1 [compound 348]', 2.74),
  ('Cc1nn(C2CCCCC2)c2nc(C(=O)O)cc(-c3cnc(N(C)C)nc3)c12 [compound 75]', 3.50),
  ('CN(C)c1ncc(-c2cc(C(=O)O)nc3c2c(C(C)(C)C)nn3C2CCCC2)cn1 [compound 91]', 3.52),
  ('Cc1nn(-c2ccccc2)c2nc(C(=O)O)cc(OCC3(C)COC3)c12 [compound 375]', 3.52),
  ('COCC1CN(c2cc(C(=O)O)nc3c2c(C)nn3-c2ccccc2)C1 [compound 294]', 3.40),
  ('CC(C)c1nn(-c2cccc(N(C)C)c2)c2nc(C(=O)O)cc(N3CCC(C#N)CC3)c12 [compound 329]', 2.75),
  ('COC1CCN(c2cc(C(=O)O)nc3c2c(C)nn3-c2ccccc2)CC1 [compound 143]', 3.36),
  ('CC(C)c1nn(C2CCCCC2)c2nc(C(=O)O)cc(-c3ccn(C)c3)c12 [compound 351]', 3.21);

----------
system_tested: ΔF508-CFTR (Homo sapiens, UniProt P13569, DEL508-508)
Construct: host or cells: CFBE41o-, doxycycline-inducible
test_description: CFTR cell surface levels using HRP-tagged ΔF508-CFTR expressing CFBE cells, intrinsic corrector capacity
Format: cell-based
test_settings: HRP-tagged ΔF508-CFTR CFBE41o- cells, compounds alone (intrinsic corrector capacity), 20 hours at 33° C.; positive control 3 μM corrector
measurement_label: % Activation (%)

INSERT INTO measurements (compound, system_tested, measurement_label, numeric_value) VALUES
  ('Cc1nn(-c2ccccc2)c2nc(C(=O)O)cc(OC3CC4(COC4)C3)c12 [compound 344]', 'ΔF508-CFTR (Homo sapiens, UniProt P13569, DEL508-508)', '% Activation', 69.225),
  ('CC(C)c1nn(C2CCCC2)c2nc(C(=O)O)cc(-c3cnc(N(C)C)nc3)c12 [compound 67]', 'ΔF508-CFTR (Homo sapiens, UniProt P13569, DEL508-508)', '% Activation', 117.6),
  ('CC(C)c1nn(-c2cccc(F)c2)c2nc(C(=O)O)cc(-c3cnc(N(C)C4CCOCC4)nc3)c12 [compound 316]', 'ΔF508-CFTR (Homo sapiens, UniProt P13569, DEL508-508)', '% Activation', 218.87),
  ('Cc1nn(-c2cccc(F)c2)c2nc(C(=O)O)cc(-c3ccc(N4CCOCC4)nc3)c12 [compound 101]', 'ΔF508-CFTR (Homo sapiens, UniProt P13569, DEL508-508)', '% Activation', 143.75),
  ('Cc1cccc(-n2nc(C(C)C)c3c(-c4ccc(N5CCC(C#N)CC5)nc4)cc(C(=O)O)nc32)c1 [compound 175]', 'ΔF508-CFTR (Homo sapiens, UniProt P13569, DEL508-508)', '% Activation', 321.67),
  ('CC(C)c1nn(-c2cccc(N3CC(F)C3)c2)c2nc(C(=O)O)cc(-c3ccc(N4CCOCC4)cc3)c12 [compound 167]', 'ΔF508-CFTR (Homo sapiens, UniProt P13569, DEL508-508)', '% Activation', 301.1),
  ('COCC1(C)CN(c2cc(C(=O)O)nc3c2c(C)nn3-c2ccccc2)C1 [compound 289]', 'ΔF508-CFTR (Homo sapiens, UniProt P13569, DEL508-508)', '% Activation', 46.35),
  ('Cc1nn(-c2ccccc2)c2nc(C(=O)O)cc(OC[C@H](F)C3CCOCC3)c12 [compound 336]', 'ΔF508-CFTR (Homo sapiens, UniProt P13569, DEL508-508)', '% Activation', 118.2),
  ('Cc1nn(C2CCN(C)CC2)c2nc(C(=O)O)cc(-c3ccc(N4CCOCC4)cc3)c12 [compound 39]', 'ΔF508-CFTR (Homo sapiens, UniProt P13569, DEL508-508)', '% Activation', '−2.469'),
  ('Cc1nn(-c2ccccc2)c2nc(C(=O)O)cc(N3CC(N4CCOCC4)C3)c12 [compound 302]', 'ΔF508-CFTR (Homo sapiens, UniProt P13569, DEL508-508)', '% Activation', 18.02),
  ('CC(C)c1nn(-c2cccc(N3CCOCC3)c2)c2nc(C(=O)O)cc(-c3ccc(N(C)C4CCOCC4)nc3)c12 [compound 187]', 'ΔF508-CFTR (Homo sapiens, UniProt P13569, DEL508-508)', '% Activation', 367.4),
  ('Cc1nn(C2CCCCC2)c2nc(C(=O)O)cc(-c3cnc(N(C)C)nc3)c12 [compound 75]', 'ΔF508-CFTR (Homo sapiens, UniProt P13569, DEL508-508)', '% Activation', 117.1),
  ('COCCN(C)c1ccc(-c2cc(C(=O)O)nc3c2c(C(C)C)nn3-c2cccc(N3CCC3)c2)cn1 [compound 239]', 'ΔF508-CFTR (Homo sapiens, UniProt P13569, DEL508-508)', '% Activation', 327.55),
  ('COCCN(C)c1cc(C(=O)O)nc2c1c(C(C)C)nn2-c1cccc(C)c1 [compound 209]', 'ΔF508-CFTR (Homo sapiens, UniProt P13569, DEL508-508)', '% Activation', 165.6),
  ('Cc1cccc(-n2nc(C(C)C)c3c(N4CCC5C(CCN5CC#N)C4)cc(C(=O)O)nc32)c1 (stereo not shown) [compound 256]', 'ΔF508-CFTR (Homo sapiens, UniProt P13569, DEL508-508)', '% Activation', 180),
  ('CN(c1ccc(-c2cc(C(=O)O)nc3c2c(C2CCC2)nn3-c2cccc(N3CCCC3)c2)cn1)C1CCOCC1 [compound 252]', 'ΔF508-CFTR (Homo sapiens, UniProt P13569, DEL508-508)', '% Activation', 398.4);
